Taken from paper PMC12668310.

Target: mUSP18 (Mus musculus, UniProt Q9WTV6)
Construct: (46-368); His-tag (N); made in house
Sequence (Q9WTV6 46-368): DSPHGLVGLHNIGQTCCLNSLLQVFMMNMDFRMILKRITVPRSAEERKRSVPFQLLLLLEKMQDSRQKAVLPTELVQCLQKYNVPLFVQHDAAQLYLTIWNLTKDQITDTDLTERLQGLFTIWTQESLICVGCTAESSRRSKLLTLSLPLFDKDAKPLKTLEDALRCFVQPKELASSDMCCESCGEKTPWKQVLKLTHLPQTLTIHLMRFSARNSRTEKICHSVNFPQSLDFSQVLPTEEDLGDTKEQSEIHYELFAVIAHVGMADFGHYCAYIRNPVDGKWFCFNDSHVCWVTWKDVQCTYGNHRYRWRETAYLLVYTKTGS
Assay: High-throughput screening, ISG15ct-RhoMP, single dose 1.25 µM
Assay type: biochemical, murine
Conditions: mUSP18 %inhibition; carboxylic acid (CA) building block alone; read-out: %inh CA only
Parameter: inhibition at 1.25 µM. Scope: all listed entries.
Report the figure in % without appending any unit label.

compound=CC(C)CC(=O)O experimental_system="mUSP18 (Mus musculus, UniProt Q9WTV6)" units=% value=-0.18
compound=O=C(O)CCCCBr experimental_system="mUSP18 (Mus musculus, UniProt Q9WTV6)" units=% value=-5.49
compound=NS(=O)(=O)c1ccc(-c2cccc(C(F)(F)F)c2)c(C(=O)O)c1 experimental_system="mUSP18 (Mus musculus, UniProt Q9WTV6)" units=% value=11.4
compound=Cc1c(Br)cccc1C(=O)O experimental_system="mUSP18 (Mus musculus, UniProt Q9WTV6)" units=% value=-3.59
compound=Cn1nc(C(=O)N2CCOCC2)cc1C(=O)O experimental_system="mUSP18 (Mus musculus, UniProt Q9WTV6)" units=% value=7.94

Shift focus to the following entry.
Any idea what inhibition at 1.25 µM was measured for O=C(O)C(CCc1ccccc1)c1ccccc1 (stereo not shown) ?
-0.33
